Task for the reader: assign each of the following molecules its reported Purity at Day 28.
Assay: Effect of concentration on the stability of the solution (purity over time)
Conditions: 0.01 wt %; in water at 25° C.
Record the result as number plus unit.

# Molecule, Property Name, Observed Result
records = [
    ("CCN(CC)CCOC(=O)CCc1ccc2cc(OC)ccc2c1.Cl", "Purity at Day 28", "45.9%"),
]

Below are 3 molecules. Give each one its Purity at Day 28.
1. CCN(CC)CCOC(=O)CC1=C(C)C(=Cc2ccc([S+](C)[O-])cc2)c2ccc(F)cc21.Cl (centres unmarked)
2. CCN(CC)CCOC(=O)CCc1nc(-c2ccccc2)c(-c2ccccc2)o1.Cl
3. CCN(CC)CCOC(=O)C(C)c1ccc2oc(-c3ccc(Cl)cc3)nc2c1.Cl (centres unmarked)

stdout:
1. 43.7%
2. 38.9%
3. 42.9%

Below are 4 molecules. Give each one its Purity at Day 28.
1. CCN(CC)CCOC(=O)Cc1c(C)n(C(=O)c2ccc(Cl)cc2)c2ccc(OC)cc12.Cl
2. CCN(CC)CCOC(=O)Cc1ccc(C(=O)c2ccc(C)cc2)n1C.Cl
3. CCN(CC)CCOC(=O)Cc1sc(-c2ccccc2)nc1-c1ccc(Cl)cc1.Cl
4. CCN(CC)CCOC(=O)[C@H](C)c1ccc2cc(OC)ccc2c1.Cl (racemic)

stdout:
45.5%
35.7%
37.5%
61.4%

* * *

Test: Effect of temperature (and pH) on the stability of the solution (purity)
Type: physicochemical
Conditions: 7% solution in water, pH 3.0, day 0
Property Name: Purity(%) at day 0
Give bare numbers, in %.

See these solved cases before continuing.
# Compound, Unit Tag, Purity(%) at day 0
records = [
    ("CCN(CC)CCOC(=O)COC(=O)Cc1c(C)n(C(=O)c2ccc(Cl)cc2)c2ccc(OC)cc12.Cl", "%", 98.5),
    ("CCN(CC)CCOC(=O)CC1=C(C)C(=Cc2ccc([S+](C)[O-])cc2)c2ccc(F)cc21.Cl (stereo not drawn)", "%", 97.6),
    ("CCN(CC)CCOC(=O)Cc1ccc(C(=O)c2ccc(C)cc2)n1C.Cl", "%", 97.8),
    ("CCN(CC)CCOC(=O)CCc1ccc2cc(OC)ccc2c1.Cl", "%", 98.3),
    ("CCN(CC)CCOC(=O)c1cc(-c2ccc(F)cc2F)ccc1OC(C)=O.Cl", "%", 99.1),
]

Below are 4 compounds. Give each one its Purity(%) at day 0.
1. CCN(CC)CCOC(=O)C(C)c1ccc2oc(-c3ccc(Cl)cc3)nc2c1.Cl (stereo not drawn)
2. CCN(CC)CCOC(=O)COc1nn(Cc2ccccc2)c2ccccc12.Cl
3. CCN(CC)CCOC(=O)Cc1c(C)n(C(=O)c2ccc(Cl)cc2)c2ccc(OC)cc12.Cl
4. CCN(CC)CCOC(=O)CCc1nc(-c2ccccc2)c(-c2ccccc2)o1.Cl

stdout:
[98.3, 97.8, 98.5, 98.6]

* * *

Test: Effect of concentration on the stability of the solution (purity over time)
Settings: 30 wt %; in water at 25° C.
Task for the reader: assign each of the following molecules its reported Purity at Day 28.
Numbers only, in %.

# Molecule, Purity at Day 28 / %
measured = [
    ("CCN(CC)CCOC(=O)CCc1nc(-c2ccccc2)c(-c2ccccc2)o1.Cl", 97.6),
    ("CCN(CC)CCOC(=O)CCc1ccc2cc(OC)ccc2c1.Cl", 97.5),
    ("CCN(CC)CCOC(=O)C(C)c1ccc2oc(-c3ccc(Cl)cc3)nc2c1.Cl (stereo not shown)", 97.3),
    ("CCN(CC)CCOC(=O)CC1=C(C)C(=Cc2ccc([S+](C)[O-])cc2)c2ccc(F)cc21.Cl (stereo not shown)", 96.7),
    ("CCN(CC)CCOC(=O)Cc1ccc(C(=O)c2ccc(C)cc2)n1C.Cl", 96.7),
    ("CCN(CC)CCOC(=O)Cc1c(C)n(C(=O)c2ccc(Cl)cc2)c2ccc(OC)cc12.Cl", 97.5),
]

Then there is this molecule:
stdin: Please give the measured Purity at Day 28 for this molecule: CCN(CC)CCOC(=O)Cc1sc(-c2ccccc2)nc1-c1ccc(Cl)cc1.Cl
stdout: 97.8
